# method: Metabolic stability in human liver microsomes with NADPH generating system
# Type: in vitro ADME
# settings: human liver microsomes, 1 μM substrate; read-out: Half-life estimated from single exponential decay
# Procedure: The compound of Formula I (Compound 10) (1 uM) and ivacaftor (1 uM) were incubated with human liver microsomes (1 mg/mL protein/mL) in the presence of NADPH generating system (NADP (1 mM, ph7, glucose-6-phosphate (5 mM ph 7.4) and glucose-6-phosphate dehydrogenase (1 Unit/mL) for 0, 30, 60, and 120 minutes. Remaining substrate was measured by LC-MS/MS. Concentration of the test article was converted to percent drug remaining relative to the concentration of the test article at Time Zero.
quantity: half-life at 1 uM (h)
Report the figure in h without appending any unit label.

Prompt: // lookup half-life at 1 uM for CC(C)(C)c1cc(C(C)(C)C)c(NC(=O)c2c[nH]c3ccccc3c2=O)cc1O [ivacaftor, reference compound]
Completion: 1.09

Ref: patent US11236067B2
